Test system: TK-10 renal
Experiment: NCI tumour cell line growth inhibition, 48 h

# compound, TGI
records = [
    ("Fc1cccc(C2SCc3nc4ccccc4n32)c1 (configuration not stated)", "> 10 µM"),
    ("OC1/C(=C/c2ccccc2)CNC/C1=C\\c1ccccc1 (configuration not stated)", "> 100 µM"),
    ("C/C(=N\\O)c1ccc(Nc2cc(-c3ccccc3)nc3c(O)cccc23)cc1", "29.8 µM"),
    ("COC(=O)C(Cc1cc(OC)c(OC)c(OC)c1)(NC(=O)c1ccccc1)P(=O)(OC)OC (configuration not stated)", "> 100 µM"),
    ("COc1ccc(/C=C2\\NC(=S)N(CN3CCOCC3)C2=O)cc1", "> 100 µM"),
    ("CCOC(=O)/C(C#N)=C/c1[nH]c(C)c(C)c1C", "> 100 µM"),
    ("CSc1nnc2n1-c1ccccc1SCC2", "> 100 µM"),
    ("CCCCCCCCCCCCCCCc1nc(SCC(=O)O)n[nH]1", "> 100 µM"),
    ("COc1cc(/C=C/C(=O)c2ccc(SC)cc2)cc(OC)c1OC", "33.5 µM"),
    ("Cc1cc(NS(=O)(=O)c2ccc(N=Nc3c(Nc4ccccc4)nn(-c4ccc(S(=O)(=O)Nc5ccncn5)cc4)c3C)cc2)no1", "> 100 µM"),
    ("CC1(C)CC(=O)C(/C=N/c2nc(-c3cccc([N+](=O)[O-])c3)cs2)=C(O)C1", "92.5 µM"),
    ("CC1(C)OC(=O)C(c2ccsc2)C(=O)O1", "> 100 µM"),
    ("CCOC(=O)C(/C=N/C(N)=S)=C(/O)c1ccccc1", "> 100 µM"),
    ("COc1ccccc1NC(=O)C(=O)C(C#N)CC(C)(C)C=O (configuration not stated)", "> 100 µM"),
    ("Cc1cccc(C)c1NC(=O)/C(CC(=O)CC(c1ccccc1)c1c(O)c2ccccc2oc1=O)=N/O (configuration not stated)", "> 100 µM"),
    ("COc1cc(Nc2nccc(-c3cnn4ncccc34)n2)cc(OC)c1", "0.406 µM"),
    ("[B]C(=O)NC(CC(C)C)C(=O)NC1c2ccsc2C(=O)C1O (configuration not stated) (tested in a mixture with another compound)", "> 100 µM"),
    ("COc1ccc(/C=N/C2=C(C#N)C(c3ccccc3)c3ccc4ccccc4c3O2)cc1 (configuration not stated)", "> 100 µM"),
    ("Cc1cc2c(C=O)[nH]nc2c(C#N)c1C", "> 100 µM"),
    ("COc1ccccc1N1C(=O)/C(=C\\c2ccccc2)SC1c1cc(OC)c(OC)c(OC)c1 (configuration not stated)", "> 100 µM"),
    ("COC(=O)C1=CCS(=O)(=O)C1", "> 100 µM"),
    ("O=C1C=C(NCCc2ccc(O)cc2)C(=O)C=C1NCCc1ccc(O)cc1", "> 100 µM"),
]

----------
System: NCI-H226 lung
Assay: NCI tumour cell line growth inhibition, 48 h
Reported TGI values are given for each entry in this list.

# molecule, TGI
rows = [
    ("O=C1COCCN1c1ccc(NCc2cn(Cc3ccc(F)cc3)c3ccccc23)cc1", "0.275 µM"),
    ("COc1ccc(-c2c3c(n(C4OC(COC(C)=O)C(OC(C)=O)C(OC(C)=O)C4OC(C)=O)c(=S)c2C#N)CCCC3)cc1 (stereo unspecified)", "> 100 µM"),
    ("c1ccc2c[n+](Cc3ccnc4ccccc34)ccc2c1", "> 100 µM"),
    ("COc1ccc(OC/C(N=Cc2cccnc2)=N/NC(=O)c2ccncc2)cc1", "> 100 µM"),
    ("COc1ccc(Nc2cnc3cc(N)ccc3n2)cc1OC", "> 100 µM"),
    ("C/C(=N\\O)c1ccc(Nc2cc(-c3ccccc3)nc3c(O)cccc23)cc1", "31.8 µM"),
    ("Nc1ncnc2c1c(-c1ccc(Oc3ccccc3)cc1)nn2C[C@H]1SSC[C@H]1O", "3.42 µM"),
    ("CC(C)(C)OC(=O)/C=C/[C@@H](CCC(=O)/C=C/[C@H](/C=C\\CCCC(=O)O)NC1(c2ccccc2)c2ccccc2-c2ccccc21)O[Si](C)(C)C(C)(C)C", "40.3 µM"),
    ("O=C(Nc1ccc(-n2cc(-c3ccncc3)c(-c3ccc(Cl)c(O)c3)n2)cc1)c1ccc(Cl)c(C(F)(F)F)c1", "> 71 µM"),
    ("CNC(=S)c1nnsc1N", "> 100 µM"),
    ("CCOc1ccc(-n2cc(-c3ccc(N(C)C)cc3)[n+]3c2CCCCC3)cc1", "> 100 µM"),
    ("CCC1(O)CC(c2ccccc2)N(C)C(c2ccccc2)C1 (stereo unspecified)", "> 100 µM"),
    ("Cn1c(=O)c2nc3sc4ccccc4c(=N)n3c2n(C)c1=O", "> 100 µM"),
    ("O=C1C2Cc3ccccc3CN2C(=O)N1CCN1CCOCC1 (stereo unspecified)", "> 100 µM"),
    ("O=c1oc2ccc([N+](=O)[O-])cc2cc1-c1csc(-c2ccccc2)n1", "> 100 µM"),
    ("CC1=NN(c2cccc(S(=O)(=O)O)c2)C2(C1)SCC(=O)N2c1nc2ccccc2s1 (stereo unspecified)", "> 100 µM"),
    ("COC(=O)C1=CCS(=O)(=O)C1", "> 100 µM"),
    ("O=C(O)c1cc2sc(C(=O)O)cc2s1", "> 100 µM"),
    ("O=C1OCC(CN2CCC(n3c(=O)[nH]c4ccccc43)CC2)=C1c1ccccc1", "76.7 µM"),
    ("CC1(C)C(=O)C2(N)CCC1C2 (stereo unspecified)", "> 100 µM"),
    ("COc1cc2oc(=O)cc(C)c2c(OC)c1OC", "> 100 µM"),
    ("COC(=O)CCC(=O)c1ccc2c(c1)CC1(Cc3ccccc3C1)C2", "94.9 µM"),
    ("O=C1CCCC1C(O)(C(F)(F)Cl)C(F)(F)Cl (stereo unspecified)", "> 10 µM"),
    ("Nc1[nH]nc2c1Cc1c(n(Cc3ccc(Cl)cc3)c3ccccc13)C(=O)N2", "44.7 µM"),
    ("COc1ccc(-c2c(C#N)c(N)n(C3OC(COC(C)=O)C(OC(C)=O)C(OC(C)=O)C3OC(C)=O)c(=S)c2C#N)cc1 (stereo unspecified)", "> 100 µM"),
    ("[B]C(=O)NC(CC(C)C)C(=O)NC1c2ccsc2C(=O)C1O (stereo unspecified) (tested in a mixture with another compound)", "> 100 µM"),
    ("C=C(C)[C@H]1C=C[C@@H](OC(C)=O)[C@@]2(COC(C)=O)[C@H](OC(=O)CCC)[C@H]3[C@@H](OC(C)=O)[C@@H](C)C[C@]3(O)C(=O)[C@@](C)(OC(C)=O)[C@H]12", "> 100 µM"),
    ("CC/C(=C(/c1ccc(Cl)cc1)c1ccc(OCCCN(C)C)cc1)c1ccc(OC)cc1", "18.3 µM"),
    ("O=CC1C(=O)Nc2nc3ccccc3n2C1c1ccccc1 (stereo unspecified)", "36.9 µM"),
    ("CC(=O)Nc1ccc(C(=O)NN2C(=O)C(Cl)C2/C=C/c2ccccc2)cc1 (stereo unspecified)", "> 100 µM"),
    ("O=[N+]([O-])c1ccc(N/N=C\\c2ccc(O)cc2O)nc1", "> 100 µM"),
    ("CCN(CC)C(=O)N1CN(c2ccccc2)C2(CCN(CCCC3(c4ccc(F)cc4)OCCO3)CC2)C1=O", "53.5 µM"),
    ("CC(C)N=C(NC#N)NS(=O)(=O)c1cnccc1NC1CCCCCCC1", "> 100 µM"),
    ("COc1ccc(-c2nc3ccccc3c(=O)[nH]2)cc1OC", "55.8 µM"),
    ("COc1ccc(/C=N/C2=C(C#N)C(c3ccccc3)c3ccc4ccccc4c3O2)cc1 (stereo unspecified)", "> 100 µM"),
    ("COC1=C2C[C@](OC)(C#CC=CC#CC2O)CC1(C)C (stereo partly specified)", "> 100 µM"),
    ("C=C(C=O)[C@@H]1CC=C(C=O)CC1", "98.7 µM"),
    ("O=c1c(-c2nc3ccccc3[nH]2)cc2ccccc2n1Cc1cn(Cc2ccc(F)cc2)nn1", "> 100 µM"),
    ("Nc1nc(N)c(N=Nc2ccc([As](=O)(O)O)c(O)c2)c(N)n1", "> 100 µM"),
    ("OC1OC2COC(c3ccccc3)OC2C(O)C1O (stereo unspecified)", "> 100 µM"),
    ("C[C@H](N)C(=O)Nc1ccc(-c2nc3ccccc3s2)cc1Cl", "11.2 µM"),
]
